biological target: Tip60 (Homo sapiens); assay: In vitro HAT assay, Tip60; conditions: read-out: Tip60 % inhibition at 100 µM
Consider the following molecules; for each one, report its inhibition at 100 µM.

molecule: Cc1cnsc1
inhibition at 100 µM: 22%
--
molecule: N#CSc1ccns1
inhibition at 100 µM: 27%
--
molecule: c1ccc(SSc2ccccc2)cc1 [Diphenyl disulphide]
inhibition at 100 µM: 4%
--
molecule: c1ccc2sc(SSc3nc4ccccc4s3)nc2c1
inhibition at 100 µM: 25%
--
molecule: Cc1cnsc1Br
inhibition at 100 µM: 14%

Provide only the value of recorded inhibition at 100 µM for `Cc1cnsc1SC#N`
46%

###

Would you mind telling me the reported pIC50 of each entry?
target: Tip60 (Homo sapiens, UniProt Q92993); test: In vitro HAT assay, Tip60
Sequence (Q92993 whole entry): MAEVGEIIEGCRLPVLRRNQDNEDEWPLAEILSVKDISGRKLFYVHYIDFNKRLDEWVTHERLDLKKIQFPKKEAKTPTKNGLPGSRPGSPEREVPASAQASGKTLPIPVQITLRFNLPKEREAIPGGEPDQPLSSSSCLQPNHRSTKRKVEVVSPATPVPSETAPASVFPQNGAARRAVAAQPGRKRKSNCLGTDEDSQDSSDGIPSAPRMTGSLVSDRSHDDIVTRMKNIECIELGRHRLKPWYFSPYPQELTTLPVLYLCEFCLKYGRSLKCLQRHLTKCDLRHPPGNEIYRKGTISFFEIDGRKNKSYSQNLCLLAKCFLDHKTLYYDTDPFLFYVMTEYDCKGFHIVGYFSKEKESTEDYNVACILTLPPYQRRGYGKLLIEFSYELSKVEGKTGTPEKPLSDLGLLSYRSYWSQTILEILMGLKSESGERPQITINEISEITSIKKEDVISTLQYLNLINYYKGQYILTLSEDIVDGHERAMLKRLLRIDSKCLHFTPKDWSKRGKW
Give bare numbers, as −log10 of the molar value.

given.smiles: c1cc(SSc2ccncc2)ccn1
target.entity: Tip60 (Homo sapiens, UniProt Q92993)
experimental.endpoint: pIC50
result.value: 4.32

Provide pIC50 value for the following molecule: `Cc1cnsc1SSc1sncc1C`
5.40
